Source of measurements: patent US8778966B2

- Tested on: PC3 cells
- assay: EB1 Comet (microtubule disruption) assay
- Assay type: cell-based, human
- assay-conditions: Homo sapiens, PC-3, 1 h, 1 hour treatment, read-out: EB1 pLAC (converted)
readout-label: minimal effective concentration

C#Cc1cccc(C[C@@](C)(C#N)c2ccc3cc(CC)c(=O)[nH]c3c2)c1 [Compound 3]
0.01 µM
CCc1cc2ccc(C(C)(C#N)CCCN(C)C(=O)c3ccc(F)cc3)cc2[nH]c1=O (centres unmarked) [Compound 188]
1 µM
CCc1cc2ccc(C(C)(C#N)Cc3cccc(Br)n3)cc2[nH]c1=O (centres unmarked) [Compound 344]
0.316 µM
CCc1cc2ccc(C(C)(C#N)Cc3cc(OC)cc(OC)c3)cc2[nH]c1=O (centres unmarked) [Compound 332]
0.316 µM
Cc1cc2ccc(C(C)(C#N)Cc3cccc(Cl)c3)cc2[nH]c1=O (centres unmarked) [Compound 37]
3.16 µM

Recorded minimal effective concentration for CCc1cc2ccc(C(C)(C#N)Cc3ccccc3C(F)(F)F)cc2[nH]c1=O (centres unmarked) [Compound 103] , please?
0.316 µM

Let us now turn to Cc1cc2ccc(C(C)(C#N)Cc3cc(F)cc(F)c3)cc2[nH]c1=O (centres unmarked) [Compound 282]
3.16 µM

Let us now turn to CCc1cc2ccc(C(C)(C#N)Cc3cccc4c3CCN4)cc2[nH]c1=O (centres unmarked) [Compound 237]
3.16 µM

Let us now turn to CCc1cc2ccc(C(C)(C#N)Cc3cccc(OCCCN4CCNCC4)c3)cc2[nH]c1=O (centres unmarked) [Compound 25]
> 10 µM

Let us now turn to CCc1cc2ccc(C(C)(C#N)Cc3ccc(F)cc3Br)cc2[nH]c1=O (centres unmarked) [Compound 139]
0.316 µM

Let us now turn to CCc1cc2ccc(C(C)(C#N)Cc3csc(C)n3)cc2[nH]c1=O (centres unmarked) [Compound 86]
3.16 µM

Let us now turn to CCc1cc2ccc(C(C)(C#N)Cc3cnc(OC)nc3Cl)cc2[nH]c1=O (centres unmarked) [Compound 356]
0.1 µM

Let us now turn to CCc1cc2ccc(C(C)(C#N)Cc3nc(Cl)cc(N(C)C)n3)cc2[nH]c1=O (centres unmarked) [Compound 359]
0.1 µM

Let us now turn to CCc1cc2ccc(C(C)(C#N)Cc3cccc(C#N)n3)cc2[nH]c1=O (single isomer, unassigned) [Compound 207]
0.1 µM

Let us now turn to CCc1cc2ccc(C(C)(C#N)CN3CCN(c4ccccn4)CC3)cc2[nH]c1=O (centres unmarked) [Compound 233]
1 µM

Let us now turn to Cc1cc2ccc(C(C)(C#N)C3CCc4ccc(C#N)cc43)cc2[nH]c1=O (centres unmarked) [Compound 250]
0.316 µM

Let us now turn to CCc1cc2ccc(C(C)(C#N)Cc3cccc(C(=N)NO)c3)cc2[nH]c1=O (centres unmarked) [Compound 186]
3.16 µM
